Organism: Mus musculus
Experiment: Compound was tested for inhibitory activity against transformed Pam 212-ras murine keratinocytes; activity expressed in Mean IC50 values
Format: functional, organism-based
parameter measured: pIC50
pIC50 is defined as minus the log10 of a concentration measured in mol/L.

Using known records, supply pIC50 for "CISPLATIN"
3.78

Origin of values: ChEMBL document CHEMBL1132556
